molecular target: Voltage-gated inwardly rectifying potassium channel KCNH2 (Homo sapiens) (UniProt Q12809); assay: qHTS Assay for Small Molecule Inhibitors of the Human hERG Channel Activity (AID 588834); conditions: U2OS BacMam hERG, FluxOR thallium flux fluorescence; series mostly up to 46.1 µM;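 further: U2OS cells transduced with hERG by BacMam; top concentration of the series differs between compounds; lower thallium flux fluorescence means stronger hERG block; nearly all actives have a fitted effect of over 50% in size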
Sequence (Q12809 whole entry, looked up): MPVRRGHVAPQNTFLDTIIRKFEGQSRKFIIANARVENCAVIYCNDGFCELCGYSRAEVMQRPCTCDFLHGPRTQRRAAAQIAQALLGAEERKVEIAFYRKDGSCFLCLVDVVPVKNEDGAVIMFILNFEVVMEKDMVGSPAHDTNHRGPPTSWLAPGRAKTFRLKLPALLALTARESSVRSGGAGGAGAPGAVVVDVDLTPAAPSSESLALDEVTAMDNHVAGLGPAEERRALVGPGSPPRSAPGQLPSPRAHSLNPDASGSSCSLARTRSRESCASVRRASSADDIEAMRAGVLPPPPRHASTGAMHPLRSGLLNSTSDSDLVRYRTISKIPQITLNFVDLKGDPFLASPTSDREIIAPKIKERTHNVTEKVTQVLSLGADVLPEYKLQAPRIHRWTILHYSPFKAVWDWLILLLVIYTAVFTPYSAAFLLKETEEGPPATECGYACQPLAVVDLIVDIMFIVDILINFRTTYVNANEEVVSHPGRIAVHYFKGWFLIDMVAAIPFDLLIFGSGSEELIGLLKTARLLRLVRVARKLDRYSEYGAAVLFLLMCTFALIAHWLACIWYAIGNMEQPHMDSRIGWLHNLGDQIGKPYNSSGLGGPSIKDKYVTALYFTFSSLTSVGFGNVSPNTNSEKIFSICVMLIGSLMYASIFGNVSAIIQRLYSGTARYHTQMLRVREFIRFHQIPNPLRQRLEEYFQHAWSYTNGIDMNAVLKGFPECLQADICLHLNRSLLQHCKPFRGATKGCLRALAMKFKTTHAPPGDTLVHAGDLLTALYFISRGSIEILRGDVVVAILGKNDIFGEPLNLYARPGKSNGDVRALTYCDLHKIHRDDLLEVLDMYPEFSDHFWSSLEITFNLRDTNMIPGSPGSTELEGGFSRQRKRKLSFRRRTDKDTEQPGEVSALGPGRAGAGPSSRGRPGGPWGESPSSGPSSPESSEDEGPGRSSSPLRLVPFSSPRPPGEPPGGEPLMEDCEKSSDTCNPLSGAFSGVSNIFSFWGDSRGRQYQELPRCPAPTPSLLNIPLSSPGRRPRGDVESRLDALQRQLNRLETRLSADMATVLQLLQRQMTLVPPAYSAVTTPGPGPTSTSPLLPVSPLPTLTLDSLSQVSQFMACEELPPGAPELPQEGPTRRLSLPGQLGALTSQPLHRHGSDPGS
Inconclusive results are not listed. The source made the active and inactive calls. The call rests on the fitted dose curve; in most records, active means well fitted inhibition curve with a large enough effect; inconclusive means small, poorly fitted or top-dose-only effect; inactive means flat fitted curve, though single readings scatter.
Your answer must be one of the following: YES = active, NO = inactive

Which outcome did this test record for the compound `O=c1[nH]c(=O)n([C@H]2C[C@H](O)[C@@H](CO)O2)cc1/C=C/Br` ?
NO

---

test: qHTS assay for small molecule agonists of the antioxidant response element (ARE) signaling pathway (AID 651741); conditions: HepG2 ARE-bla reporter, beta-lactamase FRET ratio, 16 h; series mostly up to 96 µM
Results filed as inconclusive are left out. Calls of active or inactive are those of the source. Calls follow the shape of the dose curve; as a rule, active = well fitted activation curve with a large enough effect in the signal ratio; inconclusive = small, poorly fitted or top-dose-only effect, or effect the other way, or a change in a side signal; inactive = flat fitted curve, though single readings scatter; the % refers to the signal ratio.
Your answer must be one of the following: y = active, n = inactive

Before answering, review these 6 worked examples.
>  <compound>
CCCCO

>  <category-label>
n

$$$$
>  <compound>
CC[C@H]1OC(=O)[C@H](C)[C@@H](O[C@H]2C[C@@](C)(OC)[C@@H](O)[C@H](C)O2)[C@H](C)[C@@H](O[C@@H]2O[C@H](C)C[C@H](N(C)C)[C@H]2O)[C@](C)(O)C[C@@H](C)CN(C)[C@H](C)[C@@H](O)[C@]1(C)O

>  <category-label>
n

$$$$
>  <compound>
Cc1ncc[nH]1

>  <category-label>
n

$$$$
>  <compound>
NCCO/C=C/[C@H](N)C(=O)O

>  <category-label>
n

$$$$
>  <compound>
C[Si](C)(C)O[Si](C)(C)C

>  <category-label>
n

$$$$
>  <compound>
CO/N=C(/C(=O)N[C@@H]1C(=O)N2C(C(=O)O)=C(COC(N)=O)CS[C@H]12)c1ccco1

>  <category-label>
y

$$$$

// switching to the query compound
Which outcome did this test record for the compound `CC(C)[C@@H]1CC[C@@H](C)C[C@H]1O` ?
n
